- Tested on: HT29 colon
- procedure.details: NCI tumour cell line growth inhibition, 48 h
Would you mind telling me the reported TGI of each entry?

(Q) Please supply the value of reported TGI for the item `Oc1ccc(Br)cc1CN1CCN(Cc2ccc(Cl)cc2)CC1`
(A) 62.5 µM

(Q) Tell me measured TGI for Cc1cc(C)c2c(=O)n(CC(O)CN3CCN(c4ncccn4)CC3)sc2n1 (centres undefined) please.
(A) 29.6 µM

(Q) Hello, please tell me recorded TGI for this one: `CCCCc1ccc(Nc2nc(N)c3[nH]cnc3n2)cc1`
(A) 28.3 µM

(Q) Quote TGI reported for `O=C1CCCn2c3ccccc3c3ccnc1c32` please.
(A) > 56.1 µM

(Q) Dear colleague, please send me the reported TGI for COC(=O)CC[C@@H](NC(=O)C(C)NC(=O)COC1C(O)C(COC(=O)CCCCCCCCCCNC(=O)c2ccc([N+](=O)[O-])c3[nH]c4cc(Br)ccc4c(=O)c23)OC(OCc2ccccc2)C1NC(C)=O)C(N)=O (some centres undefined) when you can.
(A) > 100 µM

(Q) // fetch TGI given entry COc1cc(/C=C/C(=O)OC[C@]23O[C@H]2[C@@H](OC2OC(C)C(O)C(O)C2O)C2C=CO[C@@H](OC4OC(CO)C(O)C(O)C4O)C23)ccc1O (some centres undefined)
(A) > 100 µM

(Q) Given `NCCCCN(CCCN)C(=O)OCc1ccccc1` , respond with its TGI.
(A) > 100 µM

(Q) Please report TGI for the following compound: `O=C(NC12CC3CC(CC(C3)C1)C2)n1cnc2cncnc21`
(A) > 100 µM

(Q) Tell me its TGI given `COc1cc(C(C)(C)C)c(OC(=O)/C=C/C(=O)O/C=C/[N+](=O)[O-])c(C(C)(C)C)c1` as the entry.
(A) 56.6 µM

(Q) Hello, please tell me recorded TGI for this one: `O=c1[nH]nc(Nc2ccccc2)c2nnn(Cc3ccccc3)c12`
(A) > 100 µM

(Q) Using known records, supply TGI for c1cc(C2O[C@H]3CCCN3[C@@H]2c2ccncc2)ccn1 (some centres undefined)
(A) > 100 µM

(Q) Return reported TGI. Input compound: `O=c1[nH]/c(=C/c2cccs2)c(=O)[nH]/c1=C/c1ccc(OCc2ccccc2)cn1`
(A) > 100 µM

(Q) Return value of TGI for input `Oc1cccc(-c2cc(=S)ss2)c1` , no commentary.
(A) 55.3 µM

(Q) Complete the entry with TGI for CCCCCCCCOCC(O)COC (centres undefined)
(A) > 100 µM

(Q) // fetch TGI given entry `O=c1[nH]c(=O)n(COCCO)cc1-c1ccccc1`
(A) > 100 µM

(Q) Please supply the value of reported TGI for the item `OCCOCn1nc(-c2ccccc2)nc1-c1cnccn1`
(A) > 100 µM

(Q) Provide only the value of recorded TGI for `COc1ccccc1NC(=O)CC(=O)NNCC(=O)Nc1nc(-c2ccccc2)cs1`
(A) > 100 µM

(Q) Quickly give me recorded TGI for CCCCC#Cc1c(I)n(C2OC(CO[Si](C)(C)C(C)(C)C)C3OC(C)(C)OC32)c(=O)[nH]c1=O (centres undefined)
(A) 22.1 µM

(Q) Please report the measured TGI for CCOC(=O)C(NC(=O)Nc1ccccc1)(Nc1cccc(Cl)c1)C(F)(F)F (centres undefined)
(A) > 100 µM

(Q) Report measured TGI; entry is Cc1ccc(NC(=O)C(=O)C2C(=O)C3=C(CC2(C)C)NC2C=CC=CC2S3)c(C)c1 (centres undefined)
(A) > 100 µM

(Q) // fetch TGI given entry CC(C)(C)NC(=O)C12C3C4C1C1C2C3C41I (centres undefined)
(A) > 100 µM

(Q) # return recorded TGI for input COC(=O)C1=C(O)C(C(=O)OC)[C@@]2(O)[C@@H](C(=O)OC)C(c3ccccc3C(F)(F)F)C[C@@H]1[C@@H]2C(=O)OC (some centres undefined)
(A) 5.3 µM

(Q) Tell me TGI reported for CCOC(=O)C(C(N)=O)c1nc2cc([N+](=O)[O-])ccc2nc1/C=C(\O)c1ccc(C)cc1 (centres undefined)
(A) > 100 µM

(Q) // Input: CC1(C)OC2C(CO)OC(/N=C(\NC#N)Oc3ccccc3)C2O1 (centres undefined) . Output its TGI only.
(A) > 100 µM

(Q) Specify reported TGI for the compound shown: CC(C)CCC[C@@H](C)C1CCC2[C@@H]3CC=C4C[C@@H](OC(=O)CCC(=O)NCC[N+](C)(C)CCCS(=O)(=O)[O-])CC[C@]4(C)C3CC[C@@]21C (some centres undefined)
(A) 80.3 µM

(Q) Please supply the value of reported TGI for the item `CCOC(=O)Cn1c(=O)c2cc(C)cc3c(Cl)nc4c(OC)c(OC)cc1c4c32`
(A) > 100 µM

(Q) Please give the documented TGI of `O=C(/C=C(\O)C(=O)O)/C=C(\O)c1ccc(Cl)cc1`
(A) > 100 µM

(Q) Note down TGI recorded for COC(=O)C1=C(SC)SC2(C(=O)OC)C3C=C(C)C4C(N13)C42C(=O)OC (centres undefined)
(A) > 100 µM

(Q) Quick one: give measured TGI for `CCOC(=O)C(=C=Cc1cccs1)C(=O)c1ccccc1`
(A) 34.5 µM

(Q) Find the measured TGI of N#CC1(Cc2ccccc2Cl)c2ccccc2C=CN1C(=O)c1ccccc1 (centres undefined) and report it.
(A) > 100 µM

(Q) For the compound `CN(C)c1ccc(C(=C2C=CC(=[N+](C)C)C=C2)c2c(O)c(S(=O)(=O)[O-])cc3cc(S(=O)(=O)O)ccc23)cc1` , report TGI.
(A) > 100 µM

(Q) Provide measured TGI value, entry: `O=C1C=Cc2cc3ccccc3c3cccc1c23`
(A) > 100 µM

(Q) Give the measured TGI for `c1ccc2c3c(c(N4CCNCC4)nc2c1)CCCC3`
(A) 28.3 µM

(Q) Note down TGI recorded for `Brc1ccc2c(c1)[C@H]1CCc3c([nH]c4ccccc34)[C@H]1N2`
(A) 27.1 µM

(Q) Please give the documented TGI of `COc1ccc(NC(=O)CC(=O)n2nc(-c3ccccc3)c(N=Nc3ccc(C)cc3)c2-c2ccccc2)cc1`
(A) > 100 µM

(Q) Note down TGI recorded for `O=C(NCCc1ccc(F)cc1)c1cc(/C=C/c2cc(O)ccc2O)ccc1O`
(A) 62.1 µM

(Q) Note TGI for the compound shown: Cc1cccc2c1NC(c1c(C)[nH]c3ccccc13)C2 (centres undefined)
(A) > 100 µM

(Q) Input `O=C(CCCCCCCCC(=O)OCCCn1cc(C(=O)NC(=O)OCc2ccccc2)c(=O)[nH]c1=O)OCCCn1cc(C(=O)NC(=O)OCc2ccccc2)c(=O)[nH]c1=O` , output reported TGI.
(A) > 100 µM

(Q) Specify TGI for `COC1=C(NC(C)=O)C(=O)c2nc3n(c2C1=O)CCC3` and stop.
(A) 66.2 µM
